- studySystem: Thioredoxin reductase 1, cytoplasmic (Rattus norvegicus)
- measurementNotes: qHTS Assay for Inhibitors of Mammalian Selenoprotein Thioredoxin Reductase 1 (TrxR1): qHTS; note: nearly all actives have a fitted effect of over 65% in size
- conditionDescription: recombinant rTrxR1, NADPH fluorescence consumption, selenite substrate; series mostly up to 114 µM
The whole screen tested about 390,000 compounds, of which about 4,000 (1%) were called active. Inconclusive results (about 4%) are left out. Calls come from the whole dose curve; as a rule, active = well fitted inhibition curve with a large enough effect; inconclusive = small, poorly fitted or top-dose-only effect; inactive = no such curve, though single readings can be large or run the other way. The entries come from a sample that favours actives as a whole.
Respond using exactly one of the listed classes: Yes = active, No = inactive

| givenSmiles | studySystem | classLabel |
| --- | --- | --- |
| Cc1cccc(CS(=O)(=O)c2ncc(Cl)c(C(=O)Nc3ccc(F)cc3)n2)c1 | Thioredoxin reductase 1, cytoplasmic (Rattus norvegicus) | Yes |
| O=C(CSc1nnc(-c2cccnc2)n1CCc1ccccc1)NCc1ccccc1 | Thioredoxin reductase 1, cytoplasmic (Rattus norvegicus) | No |
| O=C(CSc1nnc(-c2cccnc2)n1Cc1ccco1)c1ccc(Cl)c(Cl)c1 | Thioredoxin reductase 1, cytoplasmic (Rattus norvegicus) | Yes |

Query :: # outcome recorded in this test, key = CCn1c(SCC(=O)NCc2ccco2)nnc1-c1ccc(N)cc1
Result :: No

Query :: # outcome recorded in this test, key = CCS(=O)(=O)c1ncc(N(Cc2ccc(F)cc2)Cc2ccco2)c(C(=O)Nc2cc(C)ccc2C)n1
Result :: No

Query :: # outcome recorded in this test, key = CCOc1ccc(CNC(=O)c2cc(-c3ccc(Cl)s3)nc3ccccc23)cc1
Result :: No

Query :: # outcome recorded in this test, key = CCCSc1ncc(Cl)c(C(=O)Nc2c(C(=O)Nc3ccccc3)oc3ccccc23)n1
Result :: No

Query :: # outcome recorded in this test, key = Cc1cc(Nc2cc(N3CCN(C)CC3)nc(Sc3ccc(NC(=O)C4CC4)cc3)n2)n[nH]1
Result :: No

Query :: # outcome recorded in this test, key = Cc1ccc2nc(NC(=O)c3nc(SCc4ccccc4F)ncc3Cl)sc2c1
Result :: No

Query :: # outcome recorded in this test, key = CCOCCCNC(=O)c1c(NC(=O)c2nc(SC)ncc2Cl)sc2c1CCCC2
Result :: No

----------
- studySystem: Thioredoxin reductase 1, cytoplasmic (Rattus norvegicus)
- measurementNotes: qHTS Assay for Inhibitors of Mammalian Selenoprotein Thioredoxin Reductase 1 (TrxR1): qHTS; note: nearly all actives have a fitted effect of over 65% in size; note: potency is the fitted concentration of half-maximal effect
- conditionDescription: recombinant rTrxR1, NADPH fluorescence consumption, selenite substrate; series mostly up to 114 µM
Screen size: about 390,000 compounds; about 4,000 (1%) were called active. Not shown: some 4% with an inconclusive outcome. The sample as a whole holds a higher share of actives than the screen did.
endpointName: Potency

| compound | Potency |
| --- | --- |
| Cc1ccc(Cn2c(C)nc3c(c2=O)c2nc4ccccc4nc2n3Cc2ccco2)cc1 | 10 µM (active) |
| COc1ccc(-c2nc(=N)sn2-c2ccccc2)cc1 | inactive |
| CCc1ccc(S(=O)(=O)c2nnn3c2nc(N2CCN(CC)CC2)c2sccc23)cc1 | inactive |
| CSc1ncc(Cl)c(C(=O)Nc2ccc(S(=O)(=O)N3CCCC(C)C3)cc2)n1 (stereo unspecified) | inactive |
| CCOc1ccc(N(Cc2ccccc2)C(=O)c2nc(S(C)(=O)=O)ncc2Cl)cc1 | 2.24 µM (active) |
| CN(C)Cc1cn(-c2ccccc2)nc1-c1ccccc1 | inactive |
| CCOc1ccccc1NC(=O)CCn1cnnn1 | inactive |
| Cc1nn(CC(=O)O)c(=O)c2cc3cc(F)ccc3n12 | inactive |

Form field, Potency with Thioredoxin reductase 1, cytoplasmic (Rattus norvegicus), item Cn1cnc([N+](=O)[O-])c1Sc1n[nH]c(N)n1 : 12.6 µM (active)

Form field, Potency with Thioredoxin reductase 1, cytoplasmic (Rattus norvegicus), item Nc1nc(N)c(N=O)c(N)n1 : inactive

Form field, Potency with Thioredoxin reductase 1, cytoplasmic (Rattus norvegicus), item Cc1cc2c(cc3c(SCc4nc(-c5ccccc5)oc4C)nnc(C)n32)o1 : inactive

----------
- studySystem: Thioredoxin reductase 1, cytoplasmic (Rattus norvegicus)
- measurementNotes: qHTS Assay for Inhibitors of Mammalian Selenoprotein Thioredoxin Reductase 1 (TrxR1): qHTS; note: nearly all actives have a fitted effect of over 65% in size
- conditionDescription: recombinant rTrxR1, NADPH fluorescence consumption, selenite substrate; series mostly up to 114 µM
- Source text: The selenoprotein thioredoxin reductase (TrxR; EC 1.8.1.9) is a FAD containing homodimeric pyridine nucleotide-disulfide oxidoreductase with many cellular roles. Together with NADPH and its prime substrate thioredoxin (Trx), the enzyme forms the core of the Trx system. […] This BioAssay is a validation of an NADPH fluorescence-based, dual-purpose qHTS rTrxR1 assay designed to find potential inhibitors and substrates of rTrxR1. […]
Among all 390,000 compounds or so, about 4,000 (1%) were called active. Inconclusive results (about 4%) are left out. Calls come from the whole dose curve; as a rule, active = well fitted inhibition curve with a large enough effect; inconclusive = small, poorly fitted or top-dose-only effect; inactive = no such curve, though single readings can be large or run the other way. Shown is part of a subset that was picked to be rich in actives.
Respond using exactly one of the listed classes: 1 (active), -1 (inactive)

Query :: # outcome recorded in this test, key = Cc1cccc(-c2nnc(SC(C)C(=O)Nc3ccccc3)n2C)c1 (stereo not given)
Result :: -1

Query :: # outcome recorded in this test, key = O=C(Cn1c(=O)n(-c2ccc(F)cc2)c(=O)c2sc3ccccc3c21)NC1CCCC1
Result :: -1

Query :: # outcome recorded in this test, key = CCOC(=O)N1CCc2c(sc(NCc3cccc(F)c3)c2C(=O)Nc2ccccc2OCC)C1
Result :: -1

----------
- studySystem: Thioredoxin reductase 1, cytoplasmic (Rattus norvegicus)
- measurementNotes: qHTS Assay for Inhibitors of Mammalian Selenoprotein Thioredoxin Reductase 1 (TrxR1): qHTS; note: nearly all actives have a fitted effect of over 65% in size; for activity change, negative = inhibition: % is set by controls: 0 for no effect and ±100 for the full control effect
- conditionDescription: recombinant rTrxR1, NADPH fluorescence consumption, selenite substrate; series mostly up to 114 µM
Hit rate of the full screen: of about 390,000 compounds, about 4,000 (1%) were called active. Inconclusive results (about 4%) are left out. The list comes from a sample in which actives are over-represented; it also holds close analogues and randomly drawn compounds.
endpointName: activity change, negative = inhibition

Example entries begin here.
| compound | studySystem | activity change, negative = inhibition |
| --- | --- | --- |
| OC(Cc1ccc2ccccc2n1)c1ccc(Cl)c(Cl)c1 (configuration not stated) | Thioredoxin reductase 1, cytoplasmic (Rattus norvegicus) | 24.6% [at 0.0914 µM] (inactive) |
| CCN(CC)/[N+]([O-])=N/OCOC(=O)Cc1c(C)n(C(=O)c2ccc(Cl)cc2)c2ccc(OC)cc12 | Thioredoxin reductase 1, cytoplasmic (Rattus norvegicus) | 13.3% [at 0.457 µM] (inactive) |
| Cn1nnnc1SCC(=O)Nc1sccc1C(N)=O | Thioredoxin reductase 1, cytoplasmic (Rattus norvegicus) | 13.4% [at 11.4 µM] (inactive) |

The recorded activity change, negative = inhibition for CN(C)c1ccc(/C=N\Nc2ccc([N+](=O)[O-])cc2[N+](=O)[O-])cc1Cl is 26.5% [at 0.0914 µM] (inactive)

The recorded activity change, negative = inhibition for CC(=O)N(CN1C(=O)C2C3C=CC(C3)C2C1=O)c1cccc(Cl)c1 (configuration not stated) is 9.83% [at 11.4 µM] (inactive)

The recorded activity change, negative = inhibition for CCOC(=O)c1c(NC(=O)CSc2cn(CCNC(=O)c3cccc(C(F)(F)F)c3)c3ccccc23)sc2c1CCC2 is 16.1% [at 11.4 µM] (inactive)

The recorded activity change, negative = inhibition for Brc1nc2ncnc(NCc3ccco3)c2[nH]1 is 24.3% [at 0.0914 µM] (inactive)

----------
- studySystem: Thioredoxin reductase 1, cytoplasmic (Rattus norvegicus) (UniProt O89049)
- Sequence (O89049 whole entry, looked up): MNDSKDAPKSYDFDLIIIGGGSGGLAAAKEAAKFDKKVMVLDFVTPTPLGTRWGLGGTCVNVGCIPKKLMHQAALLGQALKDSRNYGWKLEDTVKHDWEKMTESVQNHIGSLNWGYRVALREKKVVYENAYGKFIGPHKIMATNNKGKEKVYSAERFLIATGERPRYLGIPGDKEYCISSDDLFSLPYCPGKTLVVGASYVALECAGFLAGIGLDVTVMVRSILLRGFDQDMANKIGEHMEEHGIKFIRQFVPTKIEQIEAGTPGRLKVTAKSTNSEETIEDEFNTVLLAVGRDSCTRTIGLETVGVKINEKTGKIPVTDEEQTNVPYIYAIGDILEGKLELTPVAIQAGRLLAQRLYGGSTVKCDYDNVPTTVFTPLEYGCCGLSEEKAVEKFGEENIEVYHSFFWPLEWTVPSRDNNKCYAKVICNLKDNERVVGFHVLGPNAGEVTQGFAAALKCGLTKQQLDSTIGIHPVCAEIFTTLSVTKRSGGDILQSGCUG
- measurementNotes: qHTS Assay for Inhibitors of Mammalian Selenoprotein Thioredoxin Reductase 1 (TrxR1): qHTS; note: nearly all actives have a fitted effect of over 65% in size
- conditionDescription: recombinant rTrxR1, NADPH fluorescence consumption, selenite substrate; series mostly up to 114 µM
- Description: The selenoprotein thioredoxin reductase (TrxR; EC 1.8.1.9) is a FAD containing homodimeric pyridine nucleotide-disulfide oxidoreductase with many cellular roles. Together with NADPH and its prime substrate thioredoxin (Trx), the enzyme forms the core of the Trx system. […] This BioAssay is a validation of an NADPH fluorescence-based, dual-purpose qHTS rTrxR1 assay designed to find potential inhibitors and substrates of rTrxR1. […]
Hit rate of the full screen: of about 390,000 compounds, about 4,000 (1%) were called active. Inconclusive results (about 4%) are left out. The call rests on the fitted dose curve; in most records, active means well fitted inhibition curve with a large enough effect; inconclusive means small, poorly fitted or top-dose-only effect; inactive means no such curve, though single readings can be large or run the other way. Shown is part of a subset that was picked to be rich in actives.
Respond using exactly one of the listed classes: Y for active, N for inactive

Solved entries (count: 5):
| compound | classLabel |
| --- | --- |
| COc1cc(NC(=O)c2noc3c2CSc2ccccc2-3)cc(OC)c1OC | Y |
| CC(C)(C)OC(=O)N1CCC(c2c(C(=O)Nc3ccc4c(c3)OCO4)cnn2-c2ccccc2)CC1 | N |
| COc1ccc(Cl)cc1NC(=O)CCn1c(=O)c2cccn2c2ccccc21 | N |
| CCCCC(=O)Nc1nnc(S(=O)(=O)N(C)Cc2ccco2)s1 | Y |
| O=C(/C=C/Sc1ncn[nH]1)c1ccc(Cl)cc1 | Y |

Query :: # outcome recorded in this test, key = CC1=Nc2cc(C(=O)NCc3ccc(C)cc3)ccc2Sc2ccc(Cl)cc21
Result :: N

Query :: # outcome recorded in this test, key = O=C(Nc1ccc2nc(SCCOc3ccccc3)sc2c1)c1ccco1
Result :: N

Query :: # outcome recorded in this test, key = CSc1ccccc1N1CCN(CCCCCC(=O)NC2CCCc3ccccc32)CC1 (stereo not drawn)
Result :: N
